testSystem: human TLR8 (Homo sapiens)
Sequence (Q9NR97 27-1041): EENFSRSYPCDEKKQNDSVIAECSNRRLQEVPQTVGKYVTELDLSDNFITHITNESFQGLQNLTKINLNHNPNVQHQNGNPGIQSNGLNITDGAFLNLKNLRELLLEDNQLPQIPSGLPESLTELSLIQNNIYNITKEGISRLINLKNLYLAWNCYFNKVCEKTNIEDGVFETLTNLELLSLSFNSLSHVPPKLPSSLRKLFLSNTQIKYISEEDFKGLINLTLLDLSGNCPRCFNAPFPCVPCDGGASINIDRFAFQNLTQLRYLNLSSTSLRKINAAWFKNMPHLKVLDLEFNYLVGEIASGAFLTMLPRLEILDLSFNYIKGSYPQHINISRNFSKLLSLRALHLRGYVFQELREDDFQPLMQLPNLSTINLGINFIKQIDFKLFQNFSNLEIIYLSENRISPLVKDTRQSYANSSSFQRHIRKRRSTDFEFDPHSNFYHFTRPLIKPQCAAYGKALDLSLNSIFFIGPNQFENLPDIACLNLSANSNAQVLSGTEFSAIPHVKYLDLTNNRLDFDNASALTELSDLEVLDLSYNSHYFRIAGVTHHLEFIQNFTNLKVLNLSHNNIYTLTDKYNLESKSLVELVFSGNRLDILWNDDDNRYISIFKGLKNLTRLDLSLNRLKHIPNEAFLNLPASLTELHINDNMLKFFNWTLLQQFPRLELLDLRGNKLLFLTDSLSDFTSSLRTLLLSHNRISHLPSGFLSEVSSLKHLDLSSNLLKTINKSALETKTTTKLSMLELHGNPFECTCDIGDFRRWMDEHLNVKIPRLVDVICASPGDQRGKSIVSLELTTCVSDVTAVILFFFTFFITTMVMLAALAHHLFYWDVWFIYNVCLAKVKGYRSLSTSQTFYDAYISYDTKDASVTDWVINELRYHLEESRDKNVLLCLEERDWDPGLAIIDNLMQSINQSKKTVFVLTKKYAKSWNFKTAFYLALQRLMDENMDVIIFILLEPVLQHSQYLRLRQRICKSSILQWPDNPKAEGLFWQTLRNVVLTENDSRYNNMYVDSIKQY
procedureDetails: TLR8 inhibition reporter assay (HEK-Blue cells, SEAP reporter, R848 stimulation)
experimentalContext: HEK-Blue cells overexpressing human TLR8, SEAP reporter, R848 15.9 μM
parameterMeasured: IC50

Form: Entry = Cc1cc(-c2[nH]c3ccc(C4CCN(CC(=O)N(C)C)CC4)cc3c2C(C)C)cc2cncn12 | System = human TLR8 (Homo sapiens) | IC50 = ____
< 100 nM

Form: Entry = Cc1nn2ccc(-c3[nH]c4ccc(C5CCN(CC(=O)N(C)C)CC5)cc4c3C(C)C)nc2c1F | System = human TLR8 (Homo sapiens) | IC50 = ____
1000 to 50000 nM

Form: Entry = CNCC(=O)N1CCC(c2ccc3[nH]c(-c4cc(OC)c5nccn5c4)c(C(C)C)c3c2)CC1 | System = human TLR8 (Homo sapiens) | IC50 = ____
< 100 nM

Form: Entry = CNCCN1CCC(c2ccc3[nH]c(-c4ccc5c(c4)CCO5)c(C)c3c2)CC1 | System = human TLR8 (Homo sapiens) | IC50 = ____
100 to 1000 nM

Form: Entry = CC(C)c1c(-c2ccnc3[nH]ncc23)[nH]c2ccc(C3CCN(Cc4ccc(Oc5ncccn5)cc4)CC3)cc12 | System = human TLR8 (Homo sapiens) | IC50 = ____
< 100 nM

Form: Entry = Cc1cc(-c2[nH]c3ccc(C4CCN(C(=O)CN5CCC(F)(F)C5)CC4)cc3c2C(C)C)cn2nnnc12 | System = human TLR8 (Homo sapiens) | IC50 = ____
100 to 1000 nM

Form: Entry = CCc1c(-c2ccnc3c(N)n[nH]c23)[nH]c2ccc(C3CCNCC3)cc12 | System = human TLR8 (Homo sapiens) | IC50 = ____
100 to 1000 nM

Form: Entry = COc1cc(-c2[nH]c3ccc(C4CCN(CC(=O)N(C)C)CC4)cc3c2C(C)C)cc2ncnn12 | System = human TLR8 (Homo sapiens) | IC50 = ____
< 100 nM

Form: Entry = Cc1cc(-c2[nH]c3ccc(C4CCN(S(=O)(=O)CCN(C)C)CC4)cc3c2C(C)C)cn2nnnc12 | System = human TLR8 (Homo sapiens) | IC50 = ____
< 100 nM

Form: Entry = Cc1cc(-c2[nH]c3ccc(C4CCN(C5COC5)CC4)cc3c2C(C)C)c(C)n2nnnc12 | System = human TLR8 (Homo sapiens) | IC50 = ____
< 100 nM

Form: Entry = Cc1nnn2ccc(-c3[nH]c4ccc(C5CCN(CCS(C)(=O)=O)CC5)cc4c3C(C)C)cc12 | System = human TLR8 (Homo sapiens) | IC50 = ____
< 100 nM

Form: Entry = CCc1c(-c2ccnc3[nH]ncc23)[nH]c2ccc(C3CCN(Cc4cnc[nH]4)CC3)cc12 | System = human TLR8 (Homo sapiens) | IC50 = ____
< 100 nM

Form: Entry = COC(=O)c1c(-c2ccnc3[nH]ncc23)[nH]c2ccc(C3CCNCC3)cc12 | System = human TLR8 (Homo sapiens) | IC50 = ____
1000 to 50000 nM

Form: Entry = CC(C)c1c(-c2ccn3nncc3c2)[nH]c2ccc(C3CCN(C4COC4)CC3)cc12 | System = human TLR8 (Homo sapiens) | IC50 = ____
100 to 1000 nM

Form: Entry = Cc1cn2cc(-c3[nH]c4ccc(C5CCNCC5)cc4c3C(C)C)cc(C)c2n1 | System = human TLR8 (Homo sapiens) | IC50 = ____
< 100 nM

Form: Entry = Cc1cn2cc(-c3[nH]c4ccc(C5CCN(C(=O)CN(C)C)CC5)cc4c3C(C)C)cc(C)c2n1 | System = human TLR8 (Homo sapiens) | IC50 = ____
< 100 nM

These data points were gathered from patent US11739098B2.
